- subject.of.test: T1, INCENP N-terminal domain (1-58), His- and Avi-tagged, biotinylated (UniProt Q9NQS7 1-58, biotinylated (Avi-tag, co-expressed E. coli biotin ligase BirA))
- T1 construct: range 1-58; Expressed in E. coli BL21(DE3); also called INC-N; INCENP N-terminal domain (AA 1-58); not shown: His-tag and Avi-tag
- T1 sequence (looked up): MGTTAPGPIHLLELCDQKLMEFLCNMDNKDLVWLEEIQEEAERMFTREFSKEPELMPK
- assay.comment: SPR, target immobilised on NTA chip via His-tag, two-fold Fab dilutions from 100 nM, 1:1 Langmuir fit
measurement.name: kon (M⁻¹ s⁻¹)
Numbers only, in M⁻¹ s⁻¹.

Which value of kon has been reported for INC-N-04 (Fab, V domains shown, also called INC-N-04 Fab) VH: EVQLVESGGGLVQPGGSLRLSCAASGFNFYSYSIHWVRQAPGKGLEWVASIYSYSGYTYYADSVKGRFTISADTSKNTAYLQMNSLRAEDTAVYYCARYPLYFQYRKYYGIDYWGQGTLVTVSS VL: DIQMTQSPSSLSASVGDRVTITCRASQSVSSAVAWYQQKPGKAPKLLIYSASSLYSGVPSRFSGSRSGTDFTLTISSLQPEDFATYYCQQGWYYPITFGQGTKVEIKR in the records?
760000
